Recorded values, source patent US20240400670A1.

# Experimental Target: T1, human IL-23 (Sino Biological, CT048-H08H) (human, UniProt Q9NPF7 20-189; P29460 23-328)
# T1 construct: also called human IL-23 protein; Human IL-23 p19
# T1 sequence (looked up) 1: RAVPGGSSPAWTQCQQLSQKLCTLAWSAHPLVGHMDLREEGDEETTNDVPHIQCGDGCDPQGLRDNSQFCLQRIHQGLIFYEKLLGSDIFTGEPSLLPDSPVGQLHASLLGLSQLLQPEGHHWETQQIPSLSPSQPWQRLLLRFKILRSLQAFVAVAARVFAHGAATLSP
# T1 sequence (looked up) 2: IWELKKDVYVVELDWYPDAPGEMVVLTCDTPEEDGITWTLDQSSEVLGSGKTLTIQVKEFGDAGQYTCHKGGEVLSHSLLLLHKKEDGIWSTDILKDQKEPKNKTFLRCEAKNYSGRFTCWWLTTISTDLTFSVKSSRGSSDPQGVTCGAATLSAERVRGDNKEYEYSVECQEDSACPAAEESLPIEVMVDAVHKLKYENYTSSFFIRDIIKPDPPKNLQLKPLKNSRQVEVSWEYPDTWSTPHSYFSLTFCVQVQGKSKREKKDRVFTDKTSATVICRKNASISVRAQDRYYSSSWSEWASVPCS
# Experiment Description: SPR (Biacore), Protein A capture of sample, 1:1 model
# Text: A certain amount of test sample was subjected to affinity capture by a biosensor chip Protein A (GE, 29127556), and then antigens at a series of concentration gradients were allowed to flow on the surface of the chip. The reaction signals were detected in real time by using Biacore (GE, 8 K) to obtain association and dissociation curves. […]
Observed Property: koff (s⁻¹)
Express it in s⁻¹; write the number only.

Binder	Observed Property	Obs Value
Hu38-3 (antibody, human IgG1, kappa, L234A L235A, V domains shown, humanized mAb38, IgG1/kappa) VH: EFQLVQSGAEVKKPGASVKVSCKASGYTFTDHNMNWVRQAPGQRLEWMGVINPNYGTTTYNQKFKGRVTITVDTSASTAYMELSSLRSEDTAVYYCARRGFAYWGQGTLVTVSS VL: DIVITQTPLSLPVTPGEPASISCRSSKSLLYKDGKTYLNWFLQRPGQSPQLLIYLMSTRASGVPDRFSGSGSGTDLTLKISRVEAEDVGVYYCQQIAEYPFTFGSGTKLEIKR	koff	4.44e-05
Hu38-8 (antibody, human IgG1, kappa, L234A L235A, V domains shown, humanized mAb38, IgG1/kappa) VH: EVQLVQSGAEVKKPGASVKVSCKASGYSFTDHNMNWVRQAPGQRLEWMGVINPNYGTTTYNQKFKGRVTITVDTSASTAYMELSSLRSEDTAVYYCARRGFAYWGQGTLVTVSS VL: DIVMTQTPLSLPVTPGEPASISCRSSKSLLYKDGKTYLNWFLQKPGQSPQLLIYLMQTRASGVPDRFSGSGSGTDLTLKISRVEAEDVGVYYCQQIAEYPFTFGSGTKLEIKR	koff	4.75e-05

Prompt: Look up koff for this binder: Hu38-1 (antibody, human IgG1, kappa, L234A L235A, V domains shown, humanized mAb38, IgG1/kappa) VH: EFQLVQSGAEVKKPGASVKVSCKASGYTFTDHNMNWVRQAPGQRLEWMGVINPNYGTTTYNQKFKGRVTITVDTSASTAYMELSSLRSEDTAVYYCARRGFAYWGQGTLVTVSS VL: DIVMTQTPLSLPVTPGEPASISCRSSKSLLYKDGKTYLNWYLQKPGQSPQLLIYLMSTRASGVPDRFSGSGSGTDFTLKISRVEAEDVGVYYCQQIAEYPFTFGSGTKLEIKR
Completion: 4.56e-05
